# target or test system: RARβ (Mus musculus, UniProt P22605)
# Sequence (P22605 1-448 isoform P22605-3): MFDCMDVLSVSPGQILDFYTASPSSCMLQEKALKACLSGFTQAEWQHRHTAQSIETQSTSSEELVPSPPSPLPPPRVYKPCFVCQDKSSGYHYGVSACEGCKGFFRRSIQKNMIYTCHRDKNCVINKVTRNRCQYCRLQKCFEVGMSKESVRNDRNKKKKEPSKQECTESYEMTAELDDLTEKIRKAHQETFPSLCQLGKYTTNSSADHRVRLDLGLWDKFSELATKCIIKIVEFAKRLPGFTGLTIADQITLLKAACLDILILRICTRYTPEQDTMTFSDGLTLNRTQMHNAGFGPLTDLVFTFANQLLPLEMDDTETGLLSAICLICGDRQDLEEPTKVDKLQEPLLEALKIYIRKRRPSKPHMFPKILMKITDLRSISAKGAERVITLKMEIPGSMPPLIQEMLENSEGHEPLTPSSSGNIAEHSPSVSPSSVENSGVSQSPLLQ
recorded endpoint: IC50 (nM)
Entry rule: numbers only, all in nM.

I have this molecule here, CC1=C(/C=C/C(C)=C/C=C/C(C)=C/C(=O)O)C(C)(C)CCC1n1ccnc1 (centres unmarked) [VN/14-1] , and I need its recorded IC50.
200

====

A collection of compounds and their measured pIC50
Target chain: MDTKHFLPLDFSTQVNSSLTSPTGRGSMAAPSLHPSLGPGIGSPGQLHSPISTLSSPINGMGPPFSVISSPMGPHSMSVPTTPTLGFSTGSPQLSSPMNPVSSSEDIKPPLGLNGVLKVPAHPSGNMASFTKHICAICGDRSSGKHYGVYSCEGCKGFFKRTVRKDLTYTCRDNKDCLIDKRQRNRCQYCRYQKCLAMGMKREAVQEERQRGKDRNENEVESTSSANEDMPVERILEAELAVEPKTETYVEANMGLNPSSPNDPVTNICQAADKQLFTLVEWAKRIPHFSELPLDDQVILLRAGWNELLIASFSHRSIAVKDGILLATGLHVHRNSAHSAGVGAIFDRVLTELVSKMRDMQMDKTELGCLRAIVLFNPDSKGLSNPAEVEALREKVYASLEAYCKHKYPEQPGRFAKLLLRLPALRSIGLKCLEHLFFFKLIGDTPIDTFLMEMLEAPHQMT
pIC50: −log10 of the molar value.

- compound: "CC1=C(/C=C/C(C)=C/C=C/C(C)=C/C(=O)O)C(C)(C)CCC1n1ccnc1 (centres unmarked) [VN/14-1]"
  recorded endpoint: "pIC50"
  assay value: "< 6.30"

I have this compound here, CC1=C(/C=C/C(C)=C/C=C/C(C)=C/C(=O)Nc2ccc(O)cc2)C(C)(C)CCC1n1ccnc1 (centres unmarked) [VN/66-1] , and I need its recorded pIC50.
< 6.30

====

# target or test system: RARβ (Mus musculus)
# test method notes: Transactivation assay (RARE-CAT reporter, CV-1 cells), RARβ
# applied conditions: 50% of maximal activity obtained with 10^−6 M all-trans-RA
recorded endpoint: EC50 (nM)
Entry rule: numbers only, all in nM.

I have this compound here, CC1=C(/C=C/C(C)=C/C=C/C(C)=C/C(=O)O)C(C)(C)CCC1n1ccnc1 (centres unmarked) , and I need its recorded EC50.
1500

====

Target protein (sequence): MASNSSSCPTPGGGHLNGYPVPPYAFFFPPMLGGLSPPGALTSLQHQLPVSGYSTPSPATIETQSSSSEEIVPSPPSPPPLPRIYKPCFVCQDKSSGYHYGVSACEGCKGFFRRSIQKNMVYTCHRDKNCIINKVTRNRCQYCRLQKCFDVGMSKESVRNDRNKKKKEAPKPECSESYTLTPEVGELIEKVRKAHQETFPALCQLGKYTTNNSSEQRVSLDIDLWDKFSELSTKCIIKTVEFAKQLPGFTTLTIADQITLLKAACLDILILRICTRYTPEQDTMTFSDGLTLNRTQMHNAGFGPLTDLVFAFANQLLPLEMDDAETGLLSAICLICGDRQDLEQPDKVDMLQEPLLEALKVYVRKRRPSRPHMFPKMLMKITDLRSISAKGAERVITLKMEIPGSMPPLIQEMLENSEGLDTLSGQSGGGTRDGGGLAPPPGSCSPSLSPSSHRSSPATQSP
recorded endpoint: IC50

Examples with their reported IC50 follow.
- compound: "CC1=C(/C=C/C(C)=C/C=C/C(C)=C/C(=O)Nc2ccc(O)cc2)C(C)(C)CCC1n1ccnc1 (stereo not drawn)"
  IC50: "> 1000 nM"
- compound: "CC1=C(/C=C/C(C)=C/C=C/C(C)=C\\C(=O)Nc2ccc(O)cc2)C(C)(C)CCC1n1ccnc1 (stereo not drawn)"
  IC50: "> 1000 nM"

Now let's try a different one.
I have this compound here, CC1=C(/C=C/C(C)=C/C=C/C(C)=C/C(=O)O)C(C)(C)CCC1n1ccnc1 (stereo not drawn) , and I need its recorded IC50.
16 nM
